System: HL-60(TB) leukemia
Assay: NCI-60 one-dose screen, 48 h (100 = growth as untreated, 0 = no growth, -100 = all killed)
Details: 10 µM unless noted
The panel holds about 83,000 compounds, 20% with a hit somewhere; the sample as a whole holds those more often.
Below is a list of entries, each paired with its recorded growth value.

{"compound": "COc1cccc(-c2nn(-c3ccccc3)cc2-c2ccnc(N3CCN(C(=O)c4ccccc4)CC3)c2)c1", "u": "%", "growth": 34.8}
{"compound": "Nc1nc(Nc2ccccc2SSc2ccccc2Nc2nc(N)nc(-c3ccccc3)n2)nc(-c2ccccc2)n1", "u": "%", "growth": 62.1}
{"compound": "CCOC(=O)/C(F)=C/C1CC1C1CCCCC1 (configuration not stated)", "u": "%", "growth": 98.7}
{"compound": "NC(=O)c1c(NC(=O)c2ccccc2C(F)(F)F)sc2c1CCC(=O)C2", "u": "%", "growth": 1.97}
{"compound": "CC(C)SC1=NC(=C(C(=N1)NC2=ClC=CC=C2)C#N)C3=CC=CC=C3", "u": "%", "growth": 84.5}
{"compound": "O=c1c2ccccc2nc(COc2ccccc2)n1NS(=O)(=O)c1ccc(Cl)cc1", "u": "%", "growth": 75.7}
{"compound": "COc1ccc(N/N=C/c2c(-c3ccc(S(C)(=O)=O)cc3)nc3ccccn23)cc1", "u": "%", "growth": 39.4}
{"compound": "CCN(CC)c1ccc2c(c1)Oc1nc(N)c(C#N)c(N)c1C2Sc1ccc(C)cc1 (configuration not stated)", "u": "%", "growth": -24.4}
{"compound": "C[C@@H]1C[C@H]2C(=O)O[C@@H](C)C(NC(=O)[C@H](Cc3cc(F)cc(F)c3)NC(=O)Nc3ccc(OS(=O)(=O)F)cc3)C(=O)N3CCC[C@H]3C(=O)N3CCO[C@H](C)[C@H]3C(=O)N[C@@H](CO)C(=O)N2C1 (some centres not stated)", "u": "%", "growth": 13.3}
{"compound": "CCn1c(SCC(=O)Nc2cccc(C(=O)/C=C/c3ccccc3Cl)c2)nc2ccccc2c1=O", "u": "%", "growth": 107}
{"compound": "COc1cc(-c2nc3sccn3c2-c2ccnc(S(C)(=O)=O)n2)ccc1F", "u": "%", "growth": 93.9}
{"compound": "NS(=O)(=O)c1ccc(Nc2nc(SCc3ccccc3)nc3ccccc23)cc1", "u": "%", "growth": 60.5}
